biological target: JAK2 (Homo sapiens (Human), UniProt O60674); experiment: JAK2 inhibitory activity, mobility shift assay, 1 mM ATP; format: biochemical; conditions: Table 7
Sequence (O60674 826-1132): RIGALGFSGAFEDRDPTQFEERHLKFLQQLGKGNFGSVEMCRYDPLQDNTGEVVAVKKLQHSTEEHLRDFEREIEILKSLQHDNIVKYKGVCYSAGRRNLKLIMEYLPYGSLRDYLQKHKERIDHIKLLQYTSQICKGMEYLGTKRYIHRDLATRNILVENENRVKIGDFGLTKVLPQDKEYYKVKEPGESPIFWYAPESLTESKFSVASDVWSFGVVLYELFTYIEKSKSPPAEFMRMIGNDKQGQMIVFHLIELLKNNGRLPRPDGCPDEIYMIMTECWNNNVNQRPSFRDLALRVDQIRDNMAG
measuredProperty: IC50 (nM)

COc1nn(C)cc1Nc1nccc(-c2c[nH]c3c(NC(=O)[C@H]4C[C@H](F)CN4[C@@H]4CCN(C)C4)cccc23)n1 (single isomer, unassigned) [Example 20]: 21500
COc1nn(C)cc1Nc1nccc(-c2c[nH]c3c(NC(=O)[C@@H](C)N4CCN(C)CC4)cccc23)n1 [AZD4205, reference compound]: 4020
COc1nn(C)cc1Nc1ncc(C)c(-c2c[nH]c3c(NC(=O)[C@H]4C[C@H](F)CN4[C@@H]4CCN(C)C4)cccc23)n1 [Example 30]: 5160
COc1nn(C)cc1Nc1ncc(F)c(-c2c[nH]c3c(NC(=O)[C@H]4C[C@H](F)CN4[C@H]4CCN(C)C4)cccc23)n1 [Example 39]: 4850

[1] COc1nn(C)cc1Nc1ncc(C)c(-c2c[nH]c3c(NC(=O)[C@H]4C[C@H](F)CN4C4CCN(C)CC4)cccc23)n1 [Example 14]
[2] COc1nn(C)cc1Nc1ncc(Cl)c(-c2c[nH]c3c(NC(=O)[C@@H]4CCCN4S(C)(=O)=O)cccc23)n1 [Example 4]
[3] COc1nn(C)cc1Nc1ncc(F)c(-c2c[nH]c3c(NC(=O)[C@H]4C[C@@H](F)CN4C4CCNCC4)cccc23)n1 [Example 7]
[4] COc1nn(C)cc1Nc1nccc(-c2c[nH]c3c(NC(=O)[C@H]4C[C@H](F)CN4C4CCN(C)CC4)cccc23)n1 [Example 40]
[5] COc1nn(C)cc1Nc1ncc(F)c(-c2c[nH]c3c(NC(=O)[C@H]4C[C@@H](OC)CN4C4CCNCC4)cccc23)n1 [Example 8]
Exam item: Please produce an ascending ranking of these molecules based on IC50. Reply: labels, ordered per the request.
Marked response: 2, 3, 1, 5, 4
(2: 652 nM, 3: 4410 nM, 1: 6620 nM, 5: 10500 nM, 4: 24300 nM)
